The values you see were collected from patent US20060058231A1.

As shown below, each of these binders has a reported ActRIIa binding (relative to wild type = 1.0) value.
# Assayed system: T1, ActRIIa receptor-Fc fusion (UniProt P27037 20-134, limits assumed)
# T1 construct: BMP receptor-Fc fusion used at 5 ug/mL
# T1 sequence (P27037 20-134 limits assumed): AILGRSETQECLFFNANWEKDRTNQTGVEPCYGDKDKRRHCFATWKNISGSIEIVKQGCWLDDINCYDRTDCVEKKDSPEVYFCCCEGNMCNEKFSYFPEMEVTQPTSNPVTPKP
# Experiment description: ELISA-like plate assay, captured BMP-7 from conditioned media, receptor-Fc detection

Worked examples follow.
ActRIIa binding (relative to wild type = 1.0) measured on BMP-7 variant R48Q (ligand, In conditioned media; numbering on mature BMP-7) STGGKQRSQNRSKTPKNQEALRMASVAENSSSDQRQACKKHELYVSFQDLGWQDWIIAPEGYAAYYCEGECAFPLNSYMNATNHAIVQTLVHFINPETVPKPCCAPTQLNAISVLYFDDSSNVILKKYRNMVVRACGCH = 0.8 relative to wild type

ActRIIa binding (relative to wild type = 1.0) measured on BMP-7 variant F93D (ligand, In conditioned media; numbering on mature BMP-7) STGGKQRSQNRSKTPKNQEALRMASVAENSSSDQRQACKKHELYVSFRDLGWQDWIIAPEGYAAYYCEGECAFPLNSYMNATNHAIVQTLVHDINPETVPKPCCAPTQLNAISVLYFDDSSNVILKKYRNMVVRACGCH = 0.8 relative to wild type

ActRIIa binding (relative to wild type = 1.0) measured on BMP-7 variant K126Q (ligand, In conditioned media; numbering on mature BMP-7) STGGKQRSQNRSKTPKNQEALRMASVAENSSSDQRQACKKHELYVSFRDLGWQDWIIAPEGYAAYYCEGECAFPLNSYMNATNHAIVQTLVHFINPETVPKPCCAPTQLNAISVLYFDDSSNVILQKYRNMVVRACGCH = 0.81 relative to wild type

We next turn to a different binder, shown below.
ActRIIa binding (relative to wild type = 1.0) measured on BMP-7 variant Q53R (ligand, In conditioned media; numbering on mature BMP-7) STGGKQRSQNRSKTPKNQEALRMASVAENSSSDQRQACKKHELYVSFRDLGWRDWIIAPEGYAAYYCEGECAFPLNSYMNATNHAIVQTLVHFINPETVPKPCCAPTQLNAISVLYFDDSSNVILKKYRNMVVRACGCH = 0.81 relative to wild type
